- TESTED TARGET: human NOX5 (hNOX5) (Homo sapiens)
- Sequence (Q96PH1 1-765): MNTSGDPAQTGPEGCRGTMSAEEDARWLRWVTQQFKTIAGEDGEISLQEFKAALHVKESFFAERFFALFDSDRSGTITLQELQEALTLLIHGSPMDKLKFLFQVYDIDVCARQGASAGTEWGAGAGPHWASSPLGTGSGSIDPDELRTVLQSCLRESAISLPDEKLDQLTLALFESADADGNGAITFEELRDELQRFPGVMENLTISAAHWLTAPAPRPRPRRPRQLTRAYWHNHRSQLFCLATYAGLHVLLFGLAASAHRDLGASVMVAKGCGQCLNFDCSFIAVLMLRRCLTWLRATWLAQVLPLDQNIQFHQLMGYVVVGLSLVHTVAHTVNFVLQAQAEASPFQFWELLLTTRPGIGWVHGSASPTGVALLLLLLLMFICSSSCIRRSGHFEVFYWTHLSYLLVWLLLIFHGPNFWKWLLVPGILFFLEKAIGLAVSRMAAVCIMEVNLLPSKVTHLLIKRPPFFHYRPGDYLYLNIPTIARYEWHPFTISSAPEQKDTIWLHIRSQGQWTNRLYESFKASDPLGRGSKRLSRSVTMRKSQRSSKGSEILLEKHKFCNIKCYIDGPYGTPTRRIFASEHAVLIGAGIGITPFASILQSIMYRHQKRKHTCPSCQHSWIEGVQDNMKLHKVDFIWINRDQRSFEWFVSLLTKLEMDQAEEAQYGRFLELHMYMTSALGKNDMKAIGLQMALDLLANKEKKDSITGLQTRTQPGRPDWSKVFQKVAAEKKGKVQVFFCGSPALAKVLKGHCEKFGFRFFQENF
- PROTOCOL TEXT: NOX5 inhibition assay (L-012), HEK293 cells stably overexpressing human NOX5
- RUN PARAMETERS: HEK293-hNOX5, PMA stimulated
pIC50: −log10 of the molar value.
Below, each of the molecules is paired with its reported pIC50 value.

As a guide, the following entries are already answered.
- MOLECULE SMILES: "O=c1c2scnc2nc(SCc2ccc(F)cc2F)n1-c1cnc(O)c(F)c1"
  pIC50: "< 4.00"
- MOLECULE SMILES: "Cc1cc(Cl)ccc1CSc1nc2ncsc2c(=O)n1-c1ccc(O)nn1"
  pIC50: "< 4.00"
- MOLECULE SMILES: "Cc1cc(F)cc(C)c1CSc1nc2ncsc2c(=O)n1-c1cc(F)c(O)c(F)c1"
  pIC50: "< 4.00"
- MOLECULE SMILES: "Cc1c(F)cccc1CSc1nc2ncsc2c(=O)n1-c1cnc(O)c(F)c1"
  pIC50: 4.25

Here is the next item to consider.
Please respond with reported pIC50 (system human NOX5 (hNOX5) (Homo sapiens)) for O=c1c2scnc2nc(SCc2ccc(Cl)cc2)n1-c1ccc(O)nn1 . < 4.00

Values compiled from patent US20240327429A1.
